Biological target: catalytic domain of human Bub1 (amino acids 704-1085) (Homo sapiens, UniProt O43683)
Construct: catalytic domain of human Bub1 (amino acids 704-1085); His6 (N); made in house; host or cells: Hi5 insect cells
Sequence (O43683 704-1085): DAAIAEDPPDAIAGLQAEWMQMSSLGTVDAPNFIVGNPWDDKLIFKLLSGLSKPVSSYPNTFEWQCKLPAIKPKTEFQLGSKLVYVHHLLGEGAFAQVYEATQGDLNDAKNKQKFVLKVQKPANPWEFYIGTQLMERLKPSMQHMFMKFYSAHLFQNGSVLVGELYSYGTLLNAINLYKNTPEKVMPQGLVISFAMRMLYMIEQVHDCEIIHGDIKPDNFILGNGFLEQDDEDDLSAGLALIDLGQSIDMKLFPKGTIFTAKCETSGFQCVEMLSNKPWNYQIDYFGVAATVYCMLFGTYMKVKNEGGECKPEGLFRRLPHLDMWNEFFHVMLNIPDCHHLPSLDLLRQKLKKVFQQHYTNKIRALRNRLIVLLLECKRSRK
Assay: Bub1 kinase assay (TR-FRET)
Format: biochemical
Conditions: TR-FRET, recombinant catalytic domain of human Bub1, ATP 10 μM, peptide substrate 1 μM, 60 min at 22° C.; read-out: Biological Assay 1: Bub1 kinase assay median IC50
measurement-name: IC50 (nM)

Take a look at these entries with their results.
INSERT INTO measurements (line_notation, target_system, measure_unit, result) VALUES
  ('COc1cnc(-c2nn(Cc3nsc(N)n3)c3ccccc23)nc1Nc1ccncc1', 'catalytic domain of human Bub1 (amino acids 704-1085) (Homo sapiens, UniProt O43683)', 'nM', 54),
  ('CNC(=O)c1nc(Cn2nc(-c3ncc(OC)c(Nc4ccncc4)n3)c3ccccc32)no1', 'catalytic domain of human Bub1 (amino acids 704-1085) (Homo sapiens, UniProt O43683)', 'nM', 540),
  ('COc1cnc(-c2nn(Cc3nn(C)cc3Cl)c3ccccc23)nc1Nc1ccncc1', 'catalytic domain of human Bub1 (amino acids 704-1085) (Homo sapiens, UniProt O43683)', 'nM', 46);

1: COc1cnc(-c2nn(Cc3cn4cccnc4n3)c3ccccc23)nc1Nc1ccncc1
2: CNC(=O)c1cnccc1Nc1nc(-c2nn(Cc3nc(COC)no3)c3ccccc23)ncc1OC
3: COCc1noc(Cn2nc(-c3ncc(OC)c(Nc4ccncc4)n3)c3ccccc32)n1
**Query** Ascending by IC50, please: list the compounds accordingly. Enter labels, ranked according to the request.
**Result** 2, 3, 1

a: COc1cnc(-c2nn(Cc3nnc(C)o3)c3ccccc23)nc1Nc1ccncc1
b: COc1cnc(-c2nn(Cc3c(Cl)cnn3C)c3ccccc23)nc1Nc1ccncc1
**Query** Of a and b , which shows the smaller IC50 value? Indicate your choice by writing its label.
**Result** b

====

Target: catalytic domain of human Bub1 (amino acids 704-1085) (Homo sapiens, UniProt O43683)
Construct: catalytic domain of human Bub1 (amino acids 704-1085); His6 (N); made in house; host or cells: Hi5 insect cells
Test: Bub1 kinase assay (TR-FRET)
Format: biochemical
measurement-name: IC50 (nM)

Would you please look over these solved cases?
INSERT INTO measurements (line_notation, target_system, result) VALUES
  ('Cc1noc(C)c1Cn1nc(-c2nc(Nc3ccncc3)cc(Nc3ccncc3)n2)c2ccccc21', 'catalytic domain of human Bub1 (amino acids 704-1085) (Homo sapiens, UniProt O43683)', 330),
  ('Cc1noc(C)c1Cn1nc(-c2nc(N)cc(Nc3ccncc3)n2)c2ccccc21', 'catalytic domain of human Bub1 (amino acids 704-1085) (Homo sapiens, UniProt O43683)', 16),
  ('COc1cnc(-c2nn(Cc3ccc(C(F)(F)F)nc3C)c3ccccc23)nc1Nc1ccncc1', 'catalytic domain of human Bub1 (amino acids 704-1085) (Homo sapiens, UniProt O43683)', 58),
  ('COCc1noc(Cn2nc(-c3ncc(OC)c(Nc4ccncc4C(N)=O)n3)c3ccccc32)n1', 'catalytic domain of human Bub1 (amino acids 704-1085) (Homo sapiens, UniProt O43683)', 4.8),
  ('CCOC(=O)c1cnccc1Nc1cc(N)nc(-c2nn(Cc3c(C)noc3C)c3ccccc23)n1', 'catalytic domain of human Bub1 (amino acids 704-1085) (Homo sapiens, UniProt O43683)', 70),
  ('Cc1noc(C)c1Cn1nc(-c2nc(N)cc(Nc3ccncc3C(=O)NCCO)n2)c2ccccc21', 'catalytic domain of human Bub1 (amino acids 704-1085) (Homo sapiens, UniProt O43683)', 34),
  ('COc1cnc(-c2nn(Cc3nnc(C)o3)c3ccccc23)nc1Nc1ccncc1C(N)=O', 'catalytic domain of human Bub1 (amino acids 704-1085) (Homo sapiens, UniProt O43683)', 22),
  ('COc1cnc(-c2nn(Cc3c(Cl)ccnc3Cl)c3ccccc23)nc1Nc1ccncc1', 'catalytic domain of human Bub1 (amino acids 704-1085) (Homo sapiens, UniProt O43683)', 8.4);

A: COc1cnc(-c2nn(Cc3cscn3)c3ccccc23)nc1Nc1ccncc1C(N)=O
B: COc1cnc(-c2nn(Cc3cc(=O)[nH]c(=O)[nH]3)c3ccccc23)nc1Nc1ccncc1
**Query** Which has the smaller recorded IC50, A or B ? Please identify the chosen entry by its label.
**Result** A

====

Target: catalytic domain of human Bub1 (amino acids 704-1085) (Homo sapiens)
Construct: catalytic domain of human Bub1 (amino acids 704-1085); His6 (N); made in house; host or cells: Hi5 insect cells
Test: Bub1 kinase assay (TR-FRET)
Format: biochemical
Conditions: TR-FRET, recombinant catalytic domain of human Bub1, ATP 10 μM, peptide substrate 1 μM, 60 min at 22° C.; read-out: Biological Assay 1: Bub1 kinase assay median IC50
pIC50: −log10 of the molar value.
measurement-name: pIC50

Some compounds with known pIC50 results, for comparison:
INSERT INTO results (line_notation, target_system, measurement_name, result) VALUES
  ('COc1cnc(-c2nn(Cc3c(C)nnn3C(F)F)c3ccccc23)nc1Nc1ccncc1', 'catalytic domain of human Bub1 (amino acids 704-1085) (Homo sapiens)', 'pIC50', 6.82),
  ('COc1cnc(-c2nn(Cc3cnn(C)c3C)c3ccccc23)nc1Nc1ccncc1', 'catalytic domain of human Bub1 (amino acids 704-1085) (Homo sapiens)', 'pIC50', 7.38),
  ('COc1cnc(-c2nn(Cc3c(C)nnn3C(F)F)c3ccccc23)nc1N(Cc1c(C)nnn1C(F)F)c1ccncc1', 'catalytic domain of human Bub1 (amino acids 704-1085) (Homo sapiens)', 'pIC50', 6.10);

a: COc1cnc(-c2nn(Cc3c(C)noc3C)c3ccccc23)nc1Nc1ccncc1
b: COc1cnc(-c2nn(Cc3c(C(F)(F)F)nnn3C)c3ccccc23)nc1Nc1ccncc1
**Query** Out of a and b , name the one with the higher pIC50. Please identify the chosen entry by its label.
**Result** a

====

Target: catalytic domain of human Bub1 (amino acids 704-1085) (Homo sapiens, UniProt O43683)
Construct: catalytic domain of human Bub1 (amino acids 704-1085); His6 (N); made in house; host or cells: Hi5 insect cells
Test: Bub1 kinase assay (TR-FRET)
Format: biochemical
measurement-name: IC50 (nM)

Look over these answered cases.
INSERT INTO results (line_notation, target_system, result) VALUES
  ('COc1cnc(-c2nn(Cc3c(C(F)(F)F)nn(C)c3C(F)F)c3ccccc23)nc1Nc1ccncc1', 'catalytic domain of human Bub1 (amino acids 704-1085) (Homo sapiens, UniProt O43683)', 3200),
  ('Cc1noc(C)c1Cn1nc(-c2nc(Nc3ccncn3)cc(Nc3ccncn3)n2)c2ccccc21', 'catalytic domain of human Bub1 (amino acids 704-1085) (Homo sapiens, UniProt O43683)', 150);

A: CNC(=O)c1cnccc1Nc1nc(-c2nn(Cc3cc(C(C)C)no3)c3ccccc23)ncc1OC
B: COc1cnc(-c2nn(Cc3ncc(F)cc3F)c3ccccc23)nc1Nc1ccncc1
**Query** // task: argmin of IC50 over [ A , B ] Lab log: write the label of the selected item as the result.
**Result** A
(A: 5.7 nM, B: 9 nM)

====

Molecular target: catalytic domain of human Bub1 (amino acids 704-1085) (Homo sapiens, UniProt O43683)
Construct: catalytic domain of human Bub1 (amino acids 704-1085); His6 (N); made in house; host or cells: Hi5 insect cells
Assay: Bub1 kinase assay (TR-FRET)
Type: biochemical
pIC50: −log10 of the molar value.
measurement-name: pIC50

Answered examples (2):
INSERT INTO measurements (line_notation, result) VALUES
  ('CNC(=O)c1cnccc1Nc1nc(-c2nn(Cc3nnc(C)o3)c3ccccc23)ncc1OC', 7.00),
  ('COc1cnc(-c2nn(Cc3cc(C(C)C)no3)c3ccccc23)nc1Nc1ccncc1C(N)=O', 8.16);

I: COc1cnc(-c2nn(Cc3c(C(F)F)nn(C)c3OCC(F)(F)F)c3ccccc23)nc1Nc1ccncc1
II: Cc1noc(C)c1Cn1nc(-c2nc(N)cc(Nc3ccncn3)n2)c2ccccc21
**Query** Hi! Which is lower in terms of pIC50, the first one I or the second one II ? Give the chosen item's label as your response.
**Result** I
